Target Or Test System: Falcipain 2 (Plasmodium falciparum, UniProt Q9N6S8)
Sequence (Q9N6S8 whole entry): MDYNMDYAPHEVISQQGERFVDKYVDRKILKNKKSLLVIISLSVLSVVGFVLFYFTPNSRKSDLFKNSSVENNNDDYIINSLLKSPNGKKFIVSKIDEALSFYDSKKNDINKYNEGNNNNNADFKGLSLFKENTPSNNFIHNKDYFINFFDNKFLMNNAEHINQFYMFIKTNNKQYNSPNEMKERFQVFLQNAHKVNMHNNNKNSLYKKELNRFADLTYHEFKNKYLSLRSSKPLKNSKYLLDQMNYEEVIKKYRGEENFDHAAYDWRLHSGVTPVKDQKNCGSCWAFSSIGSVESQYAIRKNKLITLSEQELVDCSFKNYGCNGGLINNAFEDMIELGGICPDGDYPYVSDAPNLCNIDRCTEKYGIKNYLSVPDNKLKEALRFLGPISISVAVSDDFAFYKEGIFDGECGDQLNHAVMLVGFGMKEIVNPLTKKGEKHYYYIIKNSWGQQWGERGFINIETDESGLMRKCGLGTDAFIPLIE
pIC50: −log10 of the molar value.
Assign satisfied to entries whose pIC50 meets or exceeds 5; assign not satisfied to the rest.

> print(dat)
                                   compound   answer.label
1  O=C1CC(c2ccccc2)CC2=Nc3ccc(Cl)cc3S(=O)(=O)C12 (configuration not stated)      satisfied
2  O=C1CC(c2ccccc2)CC2=Nc3ccc(F)cc3SC12 (configuration not stated)  not satisfied
3  O=C1CC(c2ccc(Cl)cc2)CC2=Nc3ccc(Cl)cc3SC12 (configuration not stated)      satisfied
4  COc1ccc(C2CC(=O)C3Sc4cc(Cl)ccc4N=C3C2)cc1OC (configuration not stated)  not satisfied
5  CC1(C)CC(=O)C2C(=Nc3ccc(Cl)cc3S2(=O)=O)C1 (configuration not stated)      satisfied
6  COc1cccc(C2CC(=O)C3Sc4cc(F)ccc4N=C3C2)c1 (configuration not stated)  not satisfied
